// provenance: the supplement of paper PMC10065799

// phosphorylation enrichment lookup, one value per entry
- assayedSystem: Fyn (UniProt P06241)
- Sequence (P06241 whole entry, looked up): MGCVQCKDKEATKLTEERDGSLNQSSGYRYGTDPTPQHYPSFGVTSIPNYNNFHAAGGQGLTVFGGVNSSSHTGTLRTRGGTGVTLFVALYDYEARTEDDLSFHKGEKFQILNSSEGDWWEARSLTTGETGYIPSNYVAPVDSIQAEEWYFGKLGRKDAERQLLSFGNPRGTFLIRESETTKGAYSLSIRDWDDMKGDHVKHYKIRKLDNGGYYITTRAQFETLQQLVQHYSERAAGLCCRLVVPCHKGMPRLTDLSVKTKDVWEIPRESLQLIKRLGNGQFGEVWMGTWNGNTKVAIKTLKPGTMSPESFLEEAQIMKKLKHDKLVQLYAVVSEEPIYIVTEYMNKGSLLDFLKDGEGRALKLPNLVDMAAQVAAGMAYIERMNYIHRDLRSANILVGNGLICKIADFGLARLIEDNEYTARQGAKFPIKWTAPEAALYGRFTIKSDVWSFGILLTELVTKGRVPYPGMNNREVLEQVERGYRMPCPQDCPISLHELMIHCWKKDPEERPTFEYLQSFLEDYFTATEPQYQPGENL
- experimentNotes: phosphorylation enrichment, bacterial display (enrichment ratio); higher = better substrate or ligand; peptides without Tyr show the background;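 also: 11-residue human phosphosite peptides and single-mutation variants displayed on the E. coli surface, counted by deep sequencing, each peptide's frequency after selection divided by its frequency in the unselected input library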;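 also: frequency after pTyr selection over input frequency; kinase dosed for 20-30% of maximal phosphorylation in three min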
Kindly provide the number alone.

[
  {
    "seqText": "QRKPSYNQLAS [BRCA2_Y71]",
    "phosphorylation enrichment": 0.399
  }
]

# input GET /values?readout=phosphorylation enrichment&item= IKKLIYVYLVI [JAGN1_Y42_H44Y]
# output 0.412

# input GET /values?readout=phosphorylation enrichment&item= LDLSFYPTSSS [EMD_Y182_YF]
# output 0.968

---

- assayedSystem: EPHB2 (UniProt P29323)
- Sequence (P29323 whole entry, looked up): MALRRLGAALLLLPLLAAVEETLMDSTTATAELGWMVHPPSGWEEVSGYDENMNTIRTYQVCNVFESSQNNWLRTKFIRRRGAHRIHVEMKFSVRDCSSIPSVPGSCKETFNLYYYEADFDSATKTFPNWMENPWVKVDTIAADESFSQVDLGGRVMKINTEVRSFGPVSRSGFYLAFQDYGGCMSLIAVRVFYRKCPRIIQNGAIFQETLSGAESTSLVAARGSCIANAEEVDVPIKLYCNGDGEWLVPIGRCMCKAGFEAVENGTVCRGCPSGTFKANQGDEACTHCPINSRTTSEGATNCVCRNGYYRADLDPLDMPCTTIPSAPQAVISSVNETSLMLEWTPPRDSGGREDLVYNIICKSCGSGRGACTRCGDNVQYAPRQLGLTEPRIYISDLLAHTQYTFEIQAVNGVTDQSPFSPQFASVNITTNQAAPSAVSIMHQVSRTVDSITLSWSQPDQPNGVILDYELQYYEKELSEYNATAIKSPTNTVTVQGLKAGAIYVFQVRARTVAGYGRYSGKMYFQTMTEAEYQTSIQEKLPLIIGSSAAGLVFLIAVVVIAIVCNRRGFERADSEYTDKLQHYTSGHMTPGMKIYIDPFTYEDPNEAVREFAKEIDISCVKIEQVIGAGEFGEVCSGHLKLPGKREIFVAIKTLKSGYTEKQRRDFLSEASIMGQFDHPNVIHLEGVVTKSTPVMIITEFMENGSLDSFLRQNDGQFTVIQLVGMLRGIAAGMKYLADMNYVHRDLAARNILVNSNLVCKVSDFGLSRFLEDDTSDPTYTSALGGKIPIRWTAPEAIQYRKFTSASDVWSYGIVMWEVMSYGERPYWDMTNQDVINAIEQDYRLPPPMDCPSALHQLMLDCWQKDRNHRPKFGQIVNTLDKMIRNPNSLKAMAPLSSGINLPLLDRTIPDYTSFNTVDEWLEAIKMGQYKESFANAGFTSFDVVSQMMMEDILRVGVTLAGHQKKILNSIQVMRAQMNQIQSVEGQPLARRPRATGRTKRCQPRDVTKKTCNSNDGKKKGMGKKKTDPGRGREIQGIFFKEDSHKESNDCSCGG
- experimentNotes: phosphorylation enrichment, bacterial display (enrichment ratio); higher = better substrate or ligand; peptides without Tyr show the background
Response key: 1 (yes) means phosphorylation enrichment >= 0.6; 0 (no) means phosphorylation enrichment < 0.6.

Sample answers from the record:
[
  {
    "seqText": "EVLKNYNQQKD [GOLGA4_Y1551]",
    "classAssignment": "0 (no)"
  },
  {
    "seqText": "RLLVVYHWTQR [HBD_Y36_P37H]",
    "classAssignment": "0 (no)"
  },
  {
    "seqText": "EMFNPYYGLFE [NEDD4L_Y679]",
    "classAssignment": "1 (yes)"
  }
]

# input Exam item: decide whether the reported phosphorylation enrichment for LYDPDYMKVIL [CYP4A22_Y104] is at least 0.6.
# output 1 (yes)

# input Exam item: decide whether the reported phosphorylation enrichment for MKALGYFAVVT [OPA1_Y498] is at least 0.6.
# output 1 (yes)

# input Exam item: decide whether the reported phosphorylation enrichment for VSVVDYVEPSP [TXNRD2_Y70_A66S] is at least 0.6.
# output 0 (no)

# input Exam item: decide whether the reported phosphorylation enrichment for CSSPTYRDCLQ [LARGE2_Y682_R677C] is at least 0.6.
# output 0 (no)

# input Exam item: decide whether the reported phosphorylation enrichment for SSYDTYHLSRE [KIR3DL2_Y253_I252T] is at least 0.6.
# output 1 (yes)

# input Exam item: decide whether the reported phosphorylation enrichment for VKKKLDEEIDQ [CYP17A1_Y329_Y329D] is at least 0.6.
# output 0 (no)

# input Exam item: decide whether the reported phosphorylation enrichment for IKKFKYGIEEH [GJA1_Y137] is at least 0.6.
# output 0 (no)

# input Exam item: decide whether the reported phosphorylation enrichment for DMLYQYLKQIE [RPAP3_Y569] is at least 0.6.
# output 1 (yes)

# input Exam item: decide whether the reported phosphorylation enrichment for VDDEIYYFRKP [PBRM1_Y1289] is at least 0.6.
# output 1 (yes)

# input Exam item: decide whether the reported phosphorylation enrichment for TARREYMHSPS [CPOX_Y429_W427R] is at least 0.6.
# output 0 (no)

# input Exam item: decide whether the reported phosphorylation enrichment for CNPLRYPTIMI [OR6K6_Y160] is at least 0.6.
# output 1 (yes)

# input Exam item: decide whether the reported phosphorylation enrichment for KNKNRSKNILP [PTPN11_Y279_Y279S] is at least 0.6.
# output 0 (no)

# input Exam item: decide whether the reported phosphorylation enrichment for FFLGAYDRFLP [SLC22A5_Y486_V481F_YF] is at least 0.6.
# output 1 (yes)

# input Exam item: decide whether the reported phosphorylation enrichment for SQQTYYRVSNM [ABCD1_Y181] is at least 0.6.
# output 1 (yes)

# input Exam item: decide whether the reported phosphorylation enrichment for YKTPIYPYLLP [PLD2_Y578_T577I] is at least 0.6.
# output 1 (yes)

# input Exam item: decide whether the reported phosphorylation enrichment for KVGNEYITKGQ [MYH7_Y410_V411I] is at least 0.6.
# output 0 (no)

# input Exam item: decide whether the reported phosphorylation enrichment for GSRGKYSSGFR [ATM_Y332] is at least 0.6.
# output 0 (no)

# input Exam item: decide whether the reported phosphorylation enrichment for CTTIHYNNMCN [TP53_Y234_Y236N] is at least 0.6.
# output 0 (no)

# input Exam item: decide whether the reported phosphorylation enrichment for EWCSPYGLTPR [GRIN3B_Y601_R598C] is at least 0.6.
# output 0 (no)

# input Exam item: decide whether the reported phosphorylation enrichment for YSTDCYRVGGH [NTRK2_Y707_Y706C] is at least 0.6.
# output 0 (no)
